Reference source for all entries: the supplement of paper PMC12494721

Tested on: Escherichia coli IAI1
TEST: growth (OD595) fold change vs plate DMSO controls (fold change (ratio)); higher = more growth
ASSAY SETUP: 20 µM; incubation time: 27 h, anaerobic, 37 °C
Structures can show the parent of a compound that is named as a salt.
Note to self: values exactly at 1 are met. So growth at or above 1 is met, below is not met.

COMPOUND	CLASSIFICATION
CN(C)[C@@H]1C(=O)C(C(N)=O)=C(O)[C@@]2(O)C(=O)C3=C(O)c4c(O)cccc4[C@@](C)(O)[C@H]3C[C@@H]12 [Tetracycline hydrochloride]	not met
C[N+]1(C)CCCCC1	met
CN[C@@H]1[C@@H](O)[C@@H](O[C@@H]2[C@@H](O)[C@H](O[C@H]3O[C@H](CN)CC[C@H]3N)[C@@H](N)C[C@H]2N)OC[C@]1(C)O.CN[C@@H]1[C@@H](O)[C@@H](O[C@@H]2[C@@H](O)[C@H](O[C@H]3O[C@H]([C@@H](C)N)CC[C@H]3N)[C@@H](N)C[C@H]2N)OC[C@]1(C)O.CN[C@@H]1[C@@H](O)[C@@H](O[C@@H]2[C@@H](O)[C@H](O[C@H]3O[C@H]([C@@H](C)NC)CC[C@H]3N)[C@@H](N)C[C@H]2N)OC[C@]1(C)O [Gentamicine sulfate]	met
